Values compiled from patent US20020115611A1.

Catalogue of pEC50 values
- assayTarget: α1β2γ2 GABAA subtype receptor (Homo sapiens, UniProt P14867+P18507)
- Sequence (P14867 28-456): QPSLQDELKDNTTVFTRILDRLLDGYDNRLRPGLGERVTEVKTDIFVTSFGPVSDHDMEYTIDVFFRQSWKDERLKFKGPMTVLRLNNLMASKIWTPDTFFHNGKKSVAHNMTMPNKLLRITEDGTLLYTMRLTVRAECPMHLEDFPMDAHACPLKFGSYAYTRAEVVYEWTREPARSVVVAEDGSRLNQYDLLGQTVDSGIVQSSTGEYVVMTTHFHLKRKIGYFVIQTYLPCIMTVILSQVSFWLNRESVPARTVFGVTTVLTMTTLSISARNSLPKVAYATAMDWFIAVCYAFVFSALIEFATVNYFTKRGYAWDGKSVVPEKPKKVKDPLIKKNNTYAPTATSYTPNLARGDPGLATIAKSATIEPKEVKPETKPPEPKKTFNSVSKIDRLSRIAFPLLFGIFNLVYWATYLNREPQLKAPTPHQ
- Sequence (P47870 25-512 partner limits assumed): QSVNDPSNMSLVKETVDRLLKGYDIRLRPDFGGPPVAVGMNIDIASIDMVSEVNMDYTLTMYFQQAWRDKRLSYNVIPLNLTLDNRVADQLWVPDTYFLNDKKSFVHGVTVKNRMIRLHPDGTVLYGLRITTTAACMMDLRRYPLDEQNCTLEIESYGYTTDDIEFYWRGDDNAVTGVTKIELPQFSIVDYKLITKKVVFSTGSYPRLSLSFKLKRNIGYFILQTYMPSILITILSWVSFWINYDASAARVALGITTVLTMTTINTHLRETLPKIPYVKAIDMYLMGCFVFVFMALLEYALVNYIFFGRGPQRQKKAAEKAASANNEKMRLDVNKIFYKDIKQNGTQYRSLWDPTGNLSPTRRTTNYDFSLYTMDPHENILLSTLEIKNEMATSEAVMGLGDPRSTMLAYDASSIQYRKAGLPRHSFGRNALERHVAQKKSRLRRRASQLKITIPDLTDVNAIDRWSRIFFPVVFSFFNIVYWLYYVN
- Sequence (P18507 40-475): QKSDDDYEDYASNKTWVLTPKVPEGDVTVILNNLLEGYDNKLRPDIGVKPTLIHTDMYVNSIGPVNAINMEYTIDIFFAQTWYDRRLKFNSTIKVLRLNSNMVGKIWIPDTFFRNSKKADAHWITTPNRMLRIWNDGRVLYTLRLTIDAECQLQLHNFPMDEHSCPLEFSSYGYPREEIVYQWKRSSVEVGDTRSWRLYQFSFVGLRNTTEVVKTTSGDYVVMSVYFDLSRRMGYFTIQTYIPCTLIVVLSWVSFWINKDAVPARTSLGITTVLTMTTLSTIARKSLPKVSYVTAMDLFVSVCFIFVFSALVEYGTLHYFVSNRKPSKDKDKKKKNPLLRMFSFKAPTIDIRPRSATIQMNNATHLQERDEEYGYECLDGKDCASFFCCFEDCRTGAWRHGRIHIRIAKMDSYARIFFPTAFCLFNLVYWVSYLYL
- assayText: cell-based
- conditionSet: oocyte electrophysiology EC50 α1β2γ2, Xenopus laevis oocytes, human subunits, GABA at EC10
Please report pEC50 as the negative decimal logarithm of the molar concentration, giving only the number.

[[record]]
molecule = "O=C1C2C=Nc3ccccc3C2=NN1c1ccccc1 (stereo not shown) [CGS 8216, reference compound]"
result = 9.15

[[record]]
molecule = "O=C(Nc1ccccc1)c1c[nH]c2c1C(=O)CCCC2"
result = 8.52

[[record]]
molecule = "Cc1nnc2n1-c1ccc(Cl)cc1C(c1ccccc1)=NC2 [Alprazolam, reference compound]"
result = 7.43

[[record]]
molecule = "CCOc1ccc(-n2c(=O)c3c[nH]c4ccccc4n-3c2=O)cc1"
result = 8.22

[[record]]
molecule = "CNCc1ccc(NC(=O)c2c[nH]c3c2C(=O)CCCC3)cc1"
result = 7.32


INPUT: Tell me pEC50 reported for O=c1[nH]c2c(n1-c1nc3ccc(F)c(F)c3o1)CCCCC2
OUTPUT: 8.30

INPUT: Tell me pEC50 reported for CC1CC(=O)c2c(C(=O)Nc3ccc(F)cc3)c[nH]c2C1 (stereo not shown)
OUTPUT: 7.85

INPUT: Tell me pEC50 reported for COc1ccc(NC(=O)c2c[nH]c3c2C(=O)CC(C)(C)C3)c(F)c1
OUTPUT: 7.36

INPUT: Tell me pEC50 reported for O=C(Nc1ccc(OCCO)cc1)c1c[nH]c2c1C(=O)CCC2
OUTPUT: 7.74

INPUT: Tell me pEC50 reported for c1cc2c(cc1-c1ncc3[nH]c4c(c3n1)CCCC4)OCO2
OUTPUT: 7.13

INPUT: Tell me pEC50 reported for COc1ccc(F)c(-c2ncc3[nH]c4c(c3n2)CCCC4)c1
OUTPUT: 7.68

INPUT: Tell me pEC50 reported for O=c1c(-c2ccccc2F)nc2c[nH]c3ccccc3n1-2
OUTPUT: 7.48

INPUT: Tell me pEC50 reported for CCOc1ccc(NC(=O)c2c[nH]c3c2C(=O)CCC3)cc1
OUTPUT: 7.48
